Assay: Pharmacokinetics of TW01003 and TW01003 sulfate after i.v. administration of TW01003 in Wistar rats
Type: in vivo, rat
Settings: male, rat, iv, plasma, i.v. TW01003 2.0 mg/kg, n = 6, mean ± SD
Structures can show the parent of a compound that is named as a salt.
Measured Attribute: Cmax (ng/mL)

[I] O=c1[nH]/c(=C/c2ccc(O)cn2)c(=O)[nH]/c1=C/c1ccccc1
[II] O=c1[nH]/c(=C\c2ccc(OS(=O)(=O)O)cn2)c(=O)[nH]/c1=C\c1ccccc1 [TW01003 sulfate]
[Q] Of I and II , whose reported Cmax is numerically smaller? Kindly state the label of the option you pick.
[A] II

* * *

Assay: Pharmacokinetics of TW01003 and TW01003 sulfate after i.v. administration of TW01003 in Wistar rats
Type: in vivo, rat
Conditions: male, rat, iv, plasma, i.v. TW01003 2.0 mg/kg, n = 6, mean ± SD
Counter-ions that a name gives are not always drawn.
Measured Attribute: clearance (mL/min/kg)

[A] O=c1[nH]/c(=C/c2ccc(O)cn2)c(=O)[nH]/c1=C/c1ccccc1
[B] O=c1[nH]/c(=C\c2ccc(OS(=O)(=O)O)cn2)c(=O)[nH]/c1=C\c1ccccc1 [TW01003 sulfate]
[Q] Please indicate which has the smaller reported clearance: A , or B . Select an item and report its label.
[A] B
